Measured values drawn from the supplement of paper PMC10567573 for this set.

For each entry below, report its protein stability index value.
B1: PDS5B (parent)
chain: ITYPPGVKEISDKISKEEMVRRLK

- Variants of: B1
- ASSAY COMMENT: protein stability index of a GFP-peptide fusion (GPS, HEK-293T) (PSI 1-6); higher = more stable;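 also: lentivirally expressed fusions sorted by FACS into six bins by GFP to DsRed ratio, PSI derived from sequencing read proportions per bin multiplied by bin number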
- ASSAY CONTEXT: c terminus: a fixed tail appended

{"SEQUENCE CHANGE": "S11K", "protein stability index": 4.72}

Report protein stability index for each item below.
1. K13R
2. S11W
3. V20G
4. K13S
5. I14L
6. K24L
7. K16G
8. V7R

4.39
2.67
4.59
4.35
4.08
2.81
2.83
4.5
